target_or_system: 5-HT2B receptor (Homo sapiens, UniProt P41595)
Construct: host or cells: CHO-K1
Sequence (P41595 whole entry): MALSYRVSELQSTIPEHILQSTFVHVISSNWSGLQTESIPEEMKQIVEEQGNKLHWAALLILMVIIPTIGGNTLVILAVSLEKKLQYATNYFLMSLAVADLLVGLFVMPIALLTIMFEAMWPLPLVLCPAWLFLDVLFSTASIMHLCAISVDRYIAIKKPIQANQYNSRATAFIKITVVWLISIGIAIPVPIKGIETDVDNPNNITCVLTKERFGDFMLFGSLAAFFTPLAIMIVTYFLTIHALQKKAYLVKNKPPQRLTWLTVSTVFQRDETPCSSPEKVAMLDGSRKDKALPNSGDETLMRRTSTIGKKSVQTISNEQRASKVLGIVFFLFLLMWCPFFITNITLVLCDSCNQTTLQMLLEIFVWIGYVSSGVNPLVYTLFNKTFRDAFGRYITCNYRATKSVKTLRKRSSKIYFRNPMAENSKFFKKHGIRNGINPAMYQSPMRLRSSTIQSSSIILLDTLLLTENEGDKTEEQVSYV
protocol_description: 5-HT2B receptor binding, 3H-LSD ligand displacement assay
condition_context: 0.1 uM compound
Below, each entry is listed with its recorded inhibition at 0.1 µM.
// return numeric value only (unit: %, not printed)

These solved cases illustrate the format of a correct answer.
CC1CN(C(=N)Nc2ccc(Cl)cc2)N=C1c1ccccc1O (stereo not drawn) :: 99
Cc1c(C2=NN(C(=N)N)C(C)C2)oc2ccccc12 (stereo not drawn) :: 63
CNC(=N)N1CC(C)C(c2ccccc2O)=N1 (stereo not drawn) :: 92

Proceeding to the next compound to report its inhibition at 0.1 µM.
stdin: Requested field: inhibition at 0.1 µM. Item: CNC(=N)N1CCC(c2ccccc2Cl)=N1
stdout: 34
